Test summary: Stability test under influencing factors (high temperature, high humidity, illumination)
Format: physicochemical
Measurement conditions: Left to stand open at RH 92.5% for 30 days
For each entry below, report its Purity value.
Give bare numbers, in %.

1) COc1cc2nccc(Oc3ccc(NC(=O)c4nn(C(C)C)cc(-c5ccc(F)cc5)c4=O)nc3)c2cc1OC [Crystal form IV] ... 99.92
2) COc1cc2nccc(Oc3ccc(NC(=O)c4nn(C(C)C)cc(-c5ccc(F)cc5)c4=O)nc3)c2cc1OC [Crystal form III] ... 99.90
3) COc1cc2nccc(Oc3ccc(NC(=O)c4nn(C(C)C)cc(-c5ccc(F)cc5)c4=O)nc3)c2cc1OC [Crystal form I] ... 99.67

*Q* Look up Purity: COc1cc2nccc(Oc3ccc(NC(=O)c4nn(C(C)C)cc(-c5ccc(F)cc5)c4=O)nc3)c2cc1OC [Crystal form II]
*A* 99.74
